Value source: patent US5902812A

IC50 values for the compounds below.
# experimental-system: PAI-1 (Homo sapiens)
# Sequence (P05121 24-402): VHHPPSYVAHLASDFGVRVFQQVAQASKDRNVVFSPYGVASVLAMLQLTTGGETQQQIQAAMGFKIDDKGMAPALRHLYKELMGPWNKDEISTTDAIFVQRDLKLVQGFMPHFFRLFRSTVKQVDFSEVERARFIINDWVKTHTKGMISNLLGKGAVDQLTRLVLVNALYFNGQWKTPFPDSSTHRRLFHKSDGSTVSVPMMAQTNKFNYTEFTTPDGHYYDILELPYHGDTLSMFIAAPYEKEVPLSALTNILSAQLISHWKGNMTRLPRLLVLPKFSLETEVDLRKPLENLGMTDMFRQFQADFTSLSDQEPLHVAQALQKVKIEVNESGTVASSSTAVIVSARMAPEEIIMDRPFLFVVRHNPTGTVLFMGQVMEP
# measurement-protocol: biochemical
# condition-info: PAI chromogenic substrate assay; read-out: IC50
All answers are understood in µM, so give the number only.

Dear colleague, I am looking for the recorded IC50 of the following compound: CN(C)CCCOc1ccc(/C=c2\[nH]c(=O)/c(=C/c3cccc(Cl)c3)[nH]c2=O)cc1 [Compound 5237]
4

---

# experimental-system: UniProt P05121
# measurement-protocol: biochemical
# condition-info: PAI chromogenic substrate assay; read-out: IC50
metric: pIC50
pIC50 here is simply -log10 of the concentration when that concentration is written in mol/L.

Previously resolved entries follow.
>>> readout_number("CN(C)CCCOc1ccc(/C=c2\\[nH]c(=O)/c(=C/c3ccc(N)cc3)[nH]c2=O)cc1")
4.77
>>> readout_number("CSc1ccc(/C=c2\\[nH]c(=O)/c(=C/c3ccc(OCCCN(C)C)cc3)[nH]c2=O)cc1")
5.70

Dear colleague, I am looking for the recorded pIC50 of the following molecule: "CN(C)CCCOc1ccc(/C=c2\[nH]c(=O)/c(=C/c3ccccc3C(F)(F)F)[nH]c2=O)cc1"
4.17
